target: gamma-globulin preparation (The Chemo-Sero-Therapeutic Research Institute), a human antibody (human); test: ELISA on immobilised human gamma-globulin, anti-6His detection; antibody binding activity after acid treatment (pH 3.0, 72 h, 30 C) divided by that without treatment
measurement_kind: RESIDUAL ACTIVITY [%] (%)
Number in %, nothing else.

binder FcγRIIa-m11-Del5 (receptor) MGQAAAPPKAVLKLEPPWTNVLQEDSVTLTCQGADSVLWFHNGNLIPTQTQLTYRFKATSNDSGEYTCQTGQTSLSDPVHLTVLSEWLVLQPPRLEFQEGETIMLRCHSWKDKPLVKVTFFQNGKSQKFSHLDPTFSIPQANHSHSGDYHCTGNIGYTSFSSKPVTITVQGGHHHHHH , RESIDUAL ACTIVITY [%] observed: 86.5

binder FcγRIIa-m11 (receptor) MGQAAAPPKAVLKLEPPWTNVLQEDSVTLTCQGARSPESDSVLWFHNGNLIPTQTQLTYRFKATSNDSGEYTCQTGQTSLSDPVHLTVLSEWLVLQPPRLEFQEGETIMLRCHSWKDKPLVKVTFFQNGKSQKFSHLDPTFSIPQANHSHSGDYHCTGNIGYTSFSSKPVTITVQGGHHHHHH , RESIDUAL ACTIVITY [%] observed: 83.6
